- assay system: HIV Env of isolate 6545.v4.c1 (clade AC) (HIV)
- assay details: cell-based or functional assay
Listed below: IC80 (µg/ml) with constrains values for each entry.
The figure you give is taken to be in µg/mL; do not add the unit.

Sample answers from the record:
binder: ePGDM13 (antibody, V domains shown) VH: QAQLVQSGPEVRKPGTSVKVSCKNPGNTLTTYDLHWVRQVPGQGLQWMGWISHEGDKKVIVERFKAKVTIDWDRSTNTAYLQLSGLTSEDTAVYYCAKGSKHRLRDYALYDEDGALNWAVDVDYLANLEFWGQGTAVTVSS VL: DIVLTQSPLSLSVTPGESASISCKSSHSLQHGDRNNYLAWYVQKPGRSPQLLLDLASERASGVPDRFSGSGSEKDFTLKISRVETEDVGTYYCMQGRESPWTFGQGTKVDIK
test result: 0.305
//
binder: ePGDM5 (antibody, V domains shown) VH: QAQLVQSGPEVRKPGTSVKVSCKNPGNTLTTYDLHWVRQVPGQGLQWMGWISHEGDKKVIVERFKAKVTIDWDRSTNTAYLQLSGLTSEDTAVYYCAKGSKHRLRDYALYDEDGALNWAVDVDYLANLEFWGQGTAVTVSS VL: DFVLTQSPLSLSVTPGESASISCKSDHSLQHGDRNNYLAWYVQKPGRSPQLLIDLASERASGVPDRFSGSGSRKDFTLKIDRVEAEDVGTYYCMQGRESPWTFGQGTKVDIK
test result: 0.17

Documented IC80 (µg/ml) with constrains of PGDM1400 (antibody, V domains shown) VH: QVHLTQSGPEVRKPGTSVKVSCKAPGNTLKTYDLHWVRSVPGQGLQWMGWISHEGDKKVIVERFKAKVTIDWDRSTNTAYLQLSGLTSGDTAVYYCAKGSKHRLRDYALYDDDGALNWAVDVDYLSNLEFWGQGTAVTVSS VL: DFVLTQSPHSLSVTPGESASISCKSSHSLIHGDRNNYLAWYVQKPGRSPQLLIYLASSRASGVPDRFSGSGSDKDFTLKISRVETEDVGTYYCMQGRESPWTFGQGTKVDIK : 0.594

For reference, reported IC80 (µg/ml) with constrains for ePGDM9 (antibody, V domains shown) VH: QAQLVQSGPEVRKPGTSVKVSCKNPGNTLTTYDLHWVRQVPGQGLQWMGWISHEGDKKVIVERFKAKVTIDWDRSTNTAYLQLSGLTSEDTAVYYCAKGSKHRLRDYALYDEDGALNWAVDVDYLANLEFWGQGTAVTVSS VL: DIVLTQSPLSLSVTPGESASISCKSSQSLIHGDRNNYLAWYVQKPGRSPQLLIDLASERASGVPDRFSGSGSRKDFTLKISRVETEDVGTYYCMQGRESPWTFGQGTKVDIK stands at 0.164
